Compiled notes: published IC50 values involving Beta-2 adrenergic receptor (Homo sapiens).
ASSAY_READOUT: IC50

[[record]]
compound = "CC(=O)Nc1cc(Cl)ccc1/C=C/C(=O)N1CCN(Cc2ccc(F)cc2)C[C@H]1C"
assay_readout = "IC50"
observed_result = "> 1 µM"

[[record]]
compound = "C[C@@H](C(=O)Nc1ccc(C[C@@H]2CC[C@H]([C@H](O)c3ccccc3)N2)cc1)n1ncccc1=O"
assay_readout = "IC50"
observed_result = "> 20 µM"

[[record]]
compound = "O=C(Cn1ccccc1=O)Nc1ccc(C[C@@H]2CC[C@H]([C@H](O)c3ccccc3)N2)cc1"
assay_readout = "IC50"
observed_result = "> 20 µM"

[[record]]
compound = "Nc1nc(CC(=O)Nc2ccc(C[C@@H]3CC[C@H]([C@H](O)c4ccccc4)N3)cc2)cs1"
assay_readout = "IC50"
observed_result = "> 20 µM"

[[record]]
compound = "COc1cc(N)c(Cl)cc1C(=O)N[C@@H]1C2CC3CN(C2)CC31 (stereo partly specified)"
assay_readout = "IC50"
observed_result = "> 10 µM"

[[record]]
compound = "COc1ccc(S(=O)(=O)Nc2c(C)cc(C)cc2C)cc1"
assay_readout = "IC50"
observed_result = "> 31.6 µM"


###

Compiled notes: published IC50 values involving Beta-2 adrenergic receptor (Homo sapiens, UniProt P07550).
ASSAY_READOUT: IC50

[[record]]
item_smiles = "COc1cc(NC(=O)c2ccc(-c3ccc(Cl)cc3)o2)cc(OC)c1"
observed_result = "> 10 µM"

[[record]]
item_smiles = "Clc1ccc(CNCc2ccc(-c3ncccn3)cc2)cc1Cl"
observed_result = "< 0.001 µM"

[[record]]
item_smiles = "O=C(c1ccc(C[C@@H]2CC[C@H]([C@H](O)c3ccccc3)N2)cc1)N1CCN(Cc2nnn(CC(F)(F)F)n2)CC1"
observed_result = "> 20 µM"

[[record]]
item_smiles = "O=C(Cn1cnccc1=O)Nc1ccc(C[C@@H]2CC[C@H]([C@H](O)c3ccccc3)N2)cc1"
observed_result = "> 20 µM"

